src = ChEMBL document CHEMBL1921757

Molecular target: CAI-1 autoinducer sensor kinase/phosphatase CqsS (Vibrio cholerae serotype O1 (strain ATCC 39315 / El Tor Inaba N16961))
Experiment: Agonist activity at CqsS receptor in cqsA-deficient, luxQ-deficient Vibrio cholerae MM920 harboring cosmid pBB1 carrying Vibrio harveyi luxCDABE gene assessed as induction of quorum sensing regulated bioluminescence after 4 hrs by scintillation counting
Could you mark each record Yes if its EC50 falls strictly under 2 µM, and No if it equals or exceeds it?

CCCCCCCCCCC(O)CC (stereo unspecified) = No

Request: In the record for `CCCCCCCCCC(=O)CCC` , is EC50 less than 2 µM?
Result: No

Request: Proceed to CCCCCCCCCC(O)CCC (stereo unspecified)
Result: No

Request: Proceed to CCCCCCCCCC(=O)C(O)C(C)(C)C (racemic)
Result: No

Request: Proceed to CCCCCCCCCC(=O)C(Br)CC (stereo unspecified)
Result: No

Request: Proceed to `CCCCCCC(=O)[C@@H](O)CC`
Result: No

Request: Proceed to CCCCCCCCCC(=O)C(O)CCC (racemic)
Result: Yes

====

Biological target: CAI-1 autoinducer sensor kinase/phosphatase CqsS (Vibrio cholerae serotype O1 (strain ATCC 39315 / El Tor Inaba N16961)) (UniProt Q9KM66)
Sequence (whole entry): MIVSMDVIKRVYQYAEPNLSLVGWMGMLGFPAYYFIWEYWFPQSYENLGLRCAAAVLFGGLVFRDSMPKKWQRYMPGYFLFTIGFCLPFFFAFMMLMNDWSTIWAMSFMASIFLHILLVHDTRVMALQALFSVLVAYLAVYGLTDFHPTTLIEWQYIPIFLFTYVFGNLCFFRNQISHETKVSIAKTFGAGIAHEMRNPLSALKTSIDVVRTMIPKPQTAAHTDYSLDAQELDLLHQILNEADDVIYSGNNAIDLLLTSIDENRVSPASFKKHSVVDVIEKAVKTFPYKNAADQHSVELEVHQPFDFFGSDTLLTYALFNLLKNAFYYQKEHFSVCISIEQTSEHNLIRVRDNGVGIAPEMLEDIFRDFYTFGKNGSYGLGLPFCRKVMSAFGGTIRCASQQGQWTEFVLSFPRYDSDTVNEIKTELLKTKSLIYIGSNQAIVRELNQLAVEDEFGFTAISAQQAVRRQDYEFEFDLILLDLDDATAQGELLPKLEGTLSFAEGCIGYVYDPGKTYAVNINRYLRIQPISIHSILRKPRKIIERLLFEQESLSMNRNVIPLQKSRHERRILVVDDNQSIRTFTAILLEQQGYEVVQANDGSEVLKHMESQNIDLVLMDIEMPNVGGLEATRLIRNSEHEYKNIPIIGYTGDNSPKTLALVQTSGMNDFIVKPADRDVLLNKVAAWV
Assay: Ratio of compound EC50 to (S)-CAI-1 EC50 for CqsS receptor in cqsA-deficient, luxQ-deficient Vibrio cholerae MM920 harboring cosmid pBB1 carrying Vibrio harveyi luxCDABE gene assessed as induction of quorum sensing regulated bioluminescence after 4 hrs by scintillation counting
OBSERVED_PROPERTY: Ratio EC50

Here is how some molecules turned out for Ratio EC50.
CCCCCCCCCCC(=O)CC = > 200
CCCCCCCCCC(O)C(O)CC (mixture of isomers) = 18

Parameter requested: Ratio EC50. Apply to each item below.
1. CCCCCCCCCCC(=O)[C@@H](O)CC
2. CCCCCCCCCCCCC(=O)[C@@H](O)CC
3. CCCCCCCCCCC(O)CC (configuration not stated)
4. CCCCCCCCCC(=O)C(Cl)CC (configuration not stated)

Result:
1. 8.4
2. > 200
3. > 200
4. > 200

Parameter requested: Ratio EC50. Apply to each item below.
1. CCCCCCCCCC(=O)C(Br)CC (configuration not stated)
2. CCCCCCCCCC(=O)C(N)CC.Cl (configuration not stated)
3. CCCCCCCCCC(=O)C(O)C(C)(C)C (racemic)

Result:
[13, 0.27, "> 200"]

====

Biological target: CAI-1 autoinducer sensor kinase/phosphatase CqsS (Vibrio cholerae serotype O1 (strain ATCC 39315 / El Tor Inaba N16961)) (UniProt Q9KM66)
Test: Ratio of compound EC50 to (S)-CAI-1 EC50 for CqsS receptor in cqsA-deficient, luxQ-deficient Vibrio cholerae MM920 harboring cosmid pBB1 carrying Vibrio harveyi luxCDABE gene assessed as induction of quorum sensing regulated bioluminescence after 4 hrs by scintillation counting
OBSERVED_PROPERTY: Ratio EC50

Here is how some molecules turned out for Ratio EC50.
CCCCCCCCCC(=O)CCC = > 200
CCCCCCC(=O)[C@@H](O)CC = > 200

--- query ---
Request: What value of Ratio EC50 has been recorded for this entry: CCCCCCCCCC(O)CCC (stereo not drawn)
Result: > 200

====

Target: CAI-1 autoinducer sensor kinase/phosphatase CqsS (Vibrio cholerae serotype O1 (strain ATCC 39315 / El Tor Inaba N16961), UniProt Q9KM66)
Sequence (Q9KM66 whole entry): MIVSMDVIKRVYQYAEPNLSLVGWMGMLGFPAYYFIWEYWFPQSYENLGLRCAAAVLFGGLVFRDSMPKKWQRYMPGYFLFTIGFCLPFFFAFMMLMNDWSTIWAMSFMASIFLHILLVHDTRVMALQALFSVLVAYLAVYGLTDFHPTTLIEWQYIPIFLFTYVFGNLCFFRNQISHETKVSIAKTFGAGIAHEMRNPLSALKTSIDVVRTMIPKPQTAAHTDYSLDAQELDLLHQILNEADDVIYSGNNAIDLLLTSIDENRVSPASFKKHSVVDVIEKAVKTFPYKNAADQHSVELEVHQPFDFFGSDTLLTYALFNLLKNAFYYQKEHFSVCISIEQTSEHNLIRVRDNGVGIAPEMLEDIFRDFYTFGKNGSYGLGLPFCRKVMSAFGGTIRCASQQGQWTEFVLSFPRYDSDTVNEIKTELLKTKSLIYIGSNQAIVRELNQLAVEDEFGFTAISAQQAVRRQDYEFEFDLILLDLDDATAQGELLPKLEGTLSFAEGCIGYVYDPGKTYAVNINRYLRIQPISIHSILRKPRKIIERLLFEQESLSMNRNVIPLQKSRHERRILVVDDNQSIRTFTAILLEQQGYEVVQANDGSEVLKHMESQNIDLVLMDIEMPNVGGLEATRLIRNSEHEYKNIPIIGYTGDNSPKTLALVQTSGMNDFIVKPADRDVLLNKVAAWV
Experiment: Antagonist activity at CqsS receptor in Vibrio cholerae MM920 assessed as inhibition of quorum sensing regulated CAI-1 induced bioluminescence after 4 hrs by scintillation counting
pIC50: −log10 of the molar value.
OBSERVED_PROPERTY: pIC50

Here is how some compounds turned out for pIC50.
CCCCCCCCCC(=O)C(O)c1ccc(C)c(C)c1 (racemic) = < 3.30
CCCCCCCCCC(=O)C(N)c1ccccc1.Cl (racemic) = < 3.30

Request: What value of pIC50 has been recorded for this entry: CCCCCCCCCC(=O)C(O)c1ccccc1C (racemic)
Result: < 3.30

====

Target: CAI-1 autoinducer sensor kinase/phosphatase CqsS (Vibrio cholerae serotype O1 (strain ATCC 39315 / El Tor Inaba N16961))
Experiment: Agonist activity at CqsS receptor in cqsA-deficient, luxQ-deficient Vibrio cholerae MM920 harboring cosmid pBB1 carrying Vibrio harveyi luxCDABE gene assessed as quorum sensing regulated bioluminescence after 4 hrs by scintillation counting relative to (S)-CAI-1
Assay type: functional
Please go through the items and note down their Emax.
Give bare numbers, in %.

Here is how some compounds turned out for Emax.
CCCCCCCCCC(=O)C(O)CCC (racemic) = 84
CCCCCCCCCC(O)C(=O)CC (centres undefined) = 38
CCCCCCCCC(=O)[C@H](O)CC = 95

Parameter requested: Emax. Apply to each item below.
1. CCCCCCCCCC(=O)C(Cl)CC (centres undefined)
2. CCCCCCCCCC(=O)C(=O)CC
3. CCCCCCCCC(=O)[C@@H](O)CC
4. CCCCCCCCCCC(=O)[C@@H](O)CC
5. CCCCCCCCCC(=O)C(Br)CC (centres undefined)
6. CCCCCCCCCC(O)C(O)CC (mixture of isomers)

Result:
1: 24; 2: 92; 3: 100; 4: 98; 5: 73; 6: 83

====

Please go through the items and note down their IC50.
Molecular target: CAI-1 autoinducer sensor kinase/phosphatase CqsS (Vibrio cholerae serotype O1 (strain ATCC 39315 / El Tor Inaba N16961))
Assay: Antagonist activity at CqsS receptor in Vibrio cholerae MM920 assessed as inhibition of quorum sensing regulated CAI-1 induced bioluminescence after 4 hrs by scintillation counting

Here is how some compounds turned out for IC50.
CCCCCCCCCC(=O)C(O)c1ccccc1Br (racemic) = > 500 µM
CCCCCCCCCC(=O)C(O)c1ccc(OC)cc1 (racemic) = > 500 µM
CCCCCCCCCC(=O)C(O)c1cccc(OC)c1 (racemic) = > 500 µM
CCCCCCCCCC(=O)C(O)c1cccc(Cl)c1 (racemic) = > 500 µM

--- query ---
Request: What value of IC50 has been recorded for this entry: CCCCCCCCCC(=O)C(O)c1cc(F)ccc1F (racemic)
Result: 68 µM
